Taken from paper PMC9037358.

Test system: MDA-MB-231
measurement notes: MTT cytotoxicity assay
Format: cell-based
test conditions: Homo sapiens, MDA-MB-231, 48 h, read-out: Cytotoxicity IC50 μM ± S.D. MDA-MB-231
Entries whose IC50 is below 6 µM take Satisfied; entries at or above 6 µM take Not satisfied.

Example entries begin here.
INSERT INTO results (compound_structure, cat) VALUES
  ('COc1cc(/C=C2/SC(Nc3ccc(S(N)(=O)=O)cc3)=NC2=O)cc(OC)c1OC', 'Not satisfied'),
  ('NS(=O)(=O)c1ccc(NC2=NC(=O)/C(=C\c3ccc([N+](=O)[O-])cc3)S2)cc1', 'Satisfied'),
  ('COc1cc(/C=C2/SC(Nc3ccc(S(N)(=O)=O)cc3)=NC2=O)ccc1O', 'Satisfied'),
  ('COc1ccc(/C=C2/SC(Nc3ccc(S(N)(=O)=O)cc3)=NC2=O)cc1', 'Not satisfied'),
  ('NS(=O)(=O)c1ccc(NC2=NC(=O)/C(=C\c3ccc(Cl)cc3)S2)cc1', 'Satisfied'),
  ('NS(=O)(=O)c1ccc(NC2=NC(=O)/C(=C\c3ccc(O)cc3)S2)cc1', 'Not satisfied'),
  ('CN(C)c1ccc(/C=C2/SC(Nc3ccc(S(N)(=O)=O)cc3)=NC2=O)cc1', 'Not satisfied'),
  ('C=CCc1cc(/C=C2/SC(Nc3ccc(S(N)(=O)=O)cc3)=NC2=O)c(O)c(OC)c1', 'Satisfied');

Identify whether the molecule NS(=O)(=O)c1ccc(NC2=NC(=O)/C(=C\c3ccccc3)S2)cc1 records IC50 below 6 µM.
Not satisfied

What about NS(=O)(=O)c1ccc(NC2=NC(=O)/C(=C\c3ccc(C(=O)O)cc3)S2)cc1 ?
Not satisfied

====

assay target: carbonic anhydrase IX (Homo sapiens, UniProt Q16790)
measurement notes: In vitro carbonic anhydrase IX enzyme inhibition
Type: biochemical
test conditions: CA IX IC50 (nM)±S.D.
measured quantity: IC50 (nM)
Report the figure in nM without appending any unit label.

These recorded examples may help you get a feel for the data.
INSERT INTO results (compound_structure, units_label, assay_result) VALUES
  ('COc1cc(/C=C2/SC(Nc3ccc(S(N)(=O)=O)cc3)=NC2=O)ccc1O', 'nM', 25.6),
  ('C=CCc1cc(/C=C2/SC(Nc3ccc(S(N)(=O)=O)cc3)=NC2=O)c(O)c(OC)c1', 'nM', 10.9);

Given the entry NS(=O)(=O)c1ccc(NC2=NC(=O)/C(=C\c3ccc([N+](=O)[O-])cc3)S2)cc1 , report its measured IC50.
17
